Each entry below carries its reported Binding affinity.
- MEASURED ON: acetylcholine receptor
- ASSAY INFO: SPR, receptor immobilized, peptide 10 uM
The reply should be a number in RU, with the unit left off.

Reference set (3 entries):
{"columns": ["BINDER", "VAL"],
 "data": [
  ["RGYTKR [6mer-2-188]", 142],
  ["RWFSKK [6mer-2-192]", 133],
  ["KVISKR [6mer-2-162]", 136]
]}

Next up:
What value of Binding affinity has been recorded for this entry: RRVCRR [6mer-2-143]
128
